Recorded measurements of PBM binding z-score, one per entry
# Test system: VDR:RXRa (NR concentration 270 nM, RXRa partner concentration 90 nM)
# assay.comment: PBM binding z-score (relative to random genomic background probes); higher = stronger binding; sequences stand for … in GC…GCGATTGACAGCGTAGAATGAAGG
readout: PBM binding z-score

>>> readout_value("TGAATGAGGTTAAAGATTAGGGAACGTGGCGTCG")
1.44
>>> readout_value("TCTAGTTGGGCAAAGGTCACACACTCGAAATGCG")
4.65
>>> readout_value("CGTCCTAGGTCAATGCTAGGTCAGTGAAAGCATT")
3.02
>>> readout_value("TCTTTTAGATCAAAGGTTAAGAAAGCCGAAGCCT")
1.51
>>> readout_value("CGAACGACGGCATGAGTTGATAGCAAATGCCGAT")
-0.72
>>> readout_value("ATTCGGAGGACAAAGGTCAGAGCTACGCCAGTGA")
3.4
>>> readout_value("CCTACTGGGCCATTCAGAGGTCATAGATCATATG")
3.64
>>> readout_value("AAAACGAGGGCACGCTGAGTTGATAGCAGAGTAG")
2.53
>>> readout_value("GCTGCTAGGTCAGGTTGTTCAGCTAACGGGTACG")
0.65
>>> readout_value("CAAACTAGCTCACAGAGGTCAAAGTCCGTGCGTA")
5.02
>>> readout_value("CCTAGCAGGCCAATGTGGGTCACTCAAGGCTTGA")
1.02
>>> readout_value("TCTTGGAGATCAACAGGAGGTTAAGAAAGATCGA")
0.539
>>> readout_value("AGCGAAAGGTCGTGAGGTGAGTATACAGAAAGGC")
3.51
>>> readout_value("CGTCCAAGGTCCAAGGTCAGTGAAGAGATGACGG")
1.6
>>> readout_value("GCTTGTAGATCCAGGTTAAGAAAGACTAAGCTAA")
-0.307
>>> readout_value("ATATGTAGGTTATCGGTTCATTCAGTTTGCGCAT")
3.97
>>> readout_value("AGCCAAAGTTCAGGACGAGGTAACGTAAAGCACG")
2.71
>>> readout_value("TAGCCTAGGTCAGATCGCGCCAGTATACGCTATA")
0.314
>>> readout_value("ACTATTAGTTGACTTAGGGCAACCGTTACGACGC")
0.577
>>> readout_value("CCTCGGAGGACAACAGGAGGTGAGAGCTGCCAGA")
-0.342
>>> readout_value("CGTCCACGGTCAGCAGGTCAGTGAAAGCGACGTG")
0.107
>>> readout_value("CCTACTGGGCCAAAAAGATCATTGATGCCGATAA")
-0.303
>>> readout_value("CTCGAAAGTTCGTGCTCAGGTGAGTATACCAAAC")
1.71
>>> readout_value("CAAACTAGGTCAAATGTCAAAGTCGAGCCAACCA")
3.1
>>> readout_value("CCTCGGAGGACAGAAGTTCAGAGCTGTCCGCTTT")
0.197
>>> readout_value("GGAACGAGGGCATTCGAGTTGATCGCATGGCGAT")
3.61
>>> readout_value("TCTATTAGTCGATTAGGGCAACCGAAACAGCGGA")
0.568
>>> readout_value("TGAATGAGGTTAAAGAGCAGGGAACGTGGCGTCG")
1.4
>>> readout_value("GCGACTGGGGCAGCAGCAGGTTACCATAACTTAA")
-0.465
>>> readout_value("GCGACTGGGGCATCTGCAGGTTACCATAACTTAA")
-0.144
>>> readout_value("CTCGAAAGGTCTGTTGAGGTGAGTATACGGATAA")
0.221
>>> readout_value("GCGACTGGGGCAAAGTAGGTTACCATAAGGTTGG")
-0.0639
>>> readout_value("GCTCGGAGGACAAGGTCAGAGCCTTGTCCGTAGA")
1.43
>>> readout_value("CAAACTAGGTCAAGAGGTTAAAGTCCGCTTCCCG")
4.18
>>> readout_value("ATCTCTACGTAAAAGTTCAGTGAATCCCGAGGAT")
1.1

###

Recorded measurements of PBM binding z-score, one per entry
# Test system: LXRb homodimer (NR concentration 270 nM)
# assay.comment: PBM binding z-score (relative to random genomic background probes); higher = stronger binding; sequences stand for … in GC…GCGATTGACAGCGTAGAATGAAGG
readout: PBM binding z-score

>>> readout_value("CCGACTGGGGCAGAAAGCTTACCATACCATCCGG")
-0.693
>>> readout_value("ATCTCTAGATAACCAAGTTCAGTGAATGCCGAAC")
0.0515
>>> readout_value("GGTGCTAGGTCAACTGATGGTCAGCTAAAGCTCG")
0.109
>>> readout_value("ATCGAAAGATCGTGAGGTGAGTATACAGAAAGGC")
-0.374
>>> readout_value("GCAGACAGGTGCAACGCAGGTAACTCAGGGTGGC")
-1.31
>>> readout_value("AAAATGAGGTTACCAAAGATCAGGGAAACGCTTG")
-0.136
>>> readout_value("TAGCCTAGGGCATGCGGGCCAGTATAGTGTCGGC")
-1.07
>>> readout_value("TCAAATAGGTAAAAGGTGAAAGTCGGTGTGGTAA")
-0.106
>>> readout_value("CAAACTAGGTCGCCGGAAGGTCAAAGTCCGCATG")
0.401
>>> readout_value("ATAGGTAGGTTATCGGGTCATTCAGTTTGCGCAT")
1.52
>>> readout_value("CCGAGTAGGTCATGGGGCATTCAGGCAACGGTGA")
-0.503
>>> readout_value("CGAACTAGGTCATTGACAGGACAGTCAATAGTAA")
0.17
>>> readout_value("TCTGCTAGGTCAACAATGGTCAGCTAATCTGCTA")
0.366
>>> readout_value("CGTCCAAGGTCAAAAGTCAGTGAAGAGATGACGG")
1.42

###

Recorded measurements of PBM binding z-score, one per entry
# Test system: VDR:RXRa (NR concentration 270 nM, RXRa partner concentration 90 nM)
# assay.comment: PBM binding z-score (relative to random genomic background probes); higher = stronger binding; sequences stand for … in GC…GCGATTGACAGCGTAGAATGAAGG
readout: PBM binding z-score

>>> readout_value("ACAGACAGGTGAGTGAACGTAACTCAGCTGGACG")
-0.318
>>> readout_value("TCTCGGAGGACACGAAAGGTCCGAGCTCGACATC")
-0.242
>>> readout_value("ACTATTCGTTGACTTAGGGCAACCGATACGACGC")
0.325
>>> readout_value("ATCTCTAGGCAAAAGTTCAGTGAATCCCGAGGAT")
0.715

###

Recorded measurements of PBM binding z-score, one per entry
# Tested on: RARa:RXR (NR concentration 270 nM, RXRa partner concentration 90 nM)
# assay.comment: PBM binding z-score (relative to random genomic background probes); higher = stronger binding; sequences stand for … in GC…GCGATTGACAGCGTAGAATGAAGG
readout: PBM binding z-score

>>> readout_value("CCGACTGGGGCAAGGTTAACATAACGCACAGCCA")
0.896
>>> readout_value("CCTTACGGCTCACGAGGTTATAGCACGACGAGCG")
0.918
>>> readout_value("ACTCGGAGGACAAAGGTCATAGCTACGCCAGTGA")
5.76
>>> readout_value("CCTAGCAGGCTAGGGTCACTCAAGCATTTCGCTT")
4.27
>>> readout_value("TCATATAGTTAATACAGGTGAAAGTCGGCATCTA")
1.59
>>> readout_value("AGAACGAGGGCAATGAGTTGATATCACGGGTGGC")
0.557
>>> readout_value("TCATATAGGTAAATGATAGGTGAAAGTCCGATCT")
1.49
>>> readout_value("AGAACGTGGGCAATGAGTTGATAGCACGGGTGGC")
-0.5
>>> readout_value("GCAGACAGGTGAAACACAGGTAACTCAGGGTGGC")
0.56
>>> readout_value("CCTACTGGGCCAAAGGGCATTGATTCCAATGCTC")
0.757
>>> readout_value("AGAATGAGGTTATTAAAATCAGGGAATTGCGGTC")
1.44
>>> readout_value("CGTCAAAGTTCAAGGTAACGTAGCAGAAAGCAGC")
3.64
>>> readout_value("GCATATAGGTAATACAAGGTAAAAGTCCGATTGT")
0.364

###

# Tested on: RARb homodimer (NR concentration 270 nM)
# assay.comment: PBM binding z-score (relative to random genomic background probes); higher = stronger binding; sequences stand for … in GC…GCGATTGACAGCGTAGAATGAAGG
Recorded measurements of PBM binding z-score, one per entry
readout: PBM binding z-score

>>> readout_value("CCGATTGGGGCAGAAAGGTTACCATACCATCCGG")
2.03
>>> readout_value("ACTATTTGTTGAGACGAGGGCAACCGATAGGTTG")
1.14
>>> readout_value("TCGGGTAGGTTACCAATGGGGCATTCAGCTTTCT")
1.04
>>> readout_value("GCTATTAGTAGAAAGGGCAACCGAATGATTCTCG")
1.83
>>> readout_value("CGTCCAAGGTCAAGGTCAGAGAAAGAGACTCGAA")
4.83
>>> readout_value("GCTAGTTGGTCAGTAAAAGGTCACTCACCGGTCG")
5.26
>>> readout_value("CAAACTAGGTCAAAGGTCAAAGGCGAGCCAACCA")
5.32
>>> readout_value("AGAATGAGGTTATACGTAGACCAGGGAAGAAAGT")
0.866
>>> readout_value("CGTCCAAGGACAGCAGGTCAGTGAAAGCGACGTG")
2.36
>>> readout_value("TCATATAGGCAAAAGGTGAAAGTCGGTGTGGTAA")
1.81
>>> readout_value("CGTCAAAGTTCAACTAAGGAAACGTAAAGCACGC")
3.66
>>> readout_value("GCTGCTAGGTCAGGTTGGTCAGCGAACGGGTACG")
2.73
